Recorded values, source BindingDB's records for doi:10.1021/jm950817g.

assay details: Activity was evaluated by inhibition of the binding of 1 nM [3H]DPDPE at Opioid receptor delta 1 binding site
pKi: −log10 of the molar value.
Catalogue of pKi values

For orientation, consider the following solved cases.
molecule | quantity | result
COC[C@]12Cc3ccc(O)cc3[C@](C)(CCCN1C)C2 | pKi | < 5.30
CC12CCC(N)C(CO)(Cc3ccc(O)cc31)C2 (stereo unspecified) | pKi | < 3.00
CN(C)C1CCC2(C)CC1(CO)Cc1ccc(O)cc12 (stereo unspecified) | pKi | < 3.00
COC[C@]12Cc3ccc(O)cc3[C@](C)(CCc3nnnn31)C2 | pKi | < 5.00
CN1CC23Cc4ccc(O)cc4C(C)(CCC12)C3 (stereo unspecified) | pKi | < 5.00

API: the following record is the query input.
Entry CNC1CCC2(C)CC1(CO)Cc1ccc(O)cc12 (stereo unspecified) — recorded pKi = < 3.00
